Entry source: patent US20090137572A1

target desc: CDK1-cyclin B (Homo sapiens, UniProt P06493)
Sequence (P06493 whole entry): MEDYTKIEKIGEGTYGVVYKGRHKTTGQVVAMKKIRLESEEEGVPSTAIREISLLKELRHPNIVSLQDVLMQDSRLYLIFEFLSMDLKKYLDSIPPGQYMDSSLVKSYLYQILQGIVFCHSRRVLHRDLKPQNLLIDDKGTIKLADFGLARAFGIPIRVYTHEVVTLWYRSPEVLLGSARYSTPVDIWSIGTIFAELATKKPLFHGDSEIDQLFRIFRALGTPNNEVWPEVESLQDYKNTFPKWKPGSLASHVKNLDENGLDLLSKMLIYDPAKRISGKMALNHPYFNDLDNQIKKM
Sequence (P14635 whole entry partner): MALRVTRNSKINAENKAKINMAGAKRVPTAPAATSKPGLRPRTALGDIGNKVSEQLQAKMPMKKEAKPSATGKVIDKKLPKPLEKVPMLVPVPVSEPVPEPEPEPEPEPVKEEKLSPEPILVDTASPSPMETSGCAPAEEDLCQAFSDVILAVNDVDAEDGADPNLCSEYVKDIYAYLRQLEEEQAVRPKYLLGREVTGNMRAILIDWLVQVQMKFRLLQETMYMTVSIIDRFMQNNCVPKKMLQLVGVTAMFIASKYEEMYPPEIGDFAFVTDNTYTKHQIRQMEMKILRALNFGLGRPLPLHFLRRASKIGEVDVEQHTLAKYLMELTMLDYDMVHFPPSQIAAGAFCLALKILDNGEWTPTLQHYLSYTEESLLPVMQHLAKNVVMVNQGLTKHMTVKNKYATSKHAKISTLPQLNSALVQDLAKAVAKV
assay notes: Kinase assay (radioactive phosphate incorporation), CDK1-cyclin B
Assay type: biochemical
conditions used: read-out: Kinase Inhibition pIC50 CDK1-cyclin B (converted)
In this section we review reported IC50 values for a set of compounds.

Previously resolved entries follow.
smiles_str=CCNc1nc(C)c(-c2ccnc(Nc3cccc(CC(=O)OCCOC)c3)n2)s1 result_value="5.01 µM"
smiles_str=COCCNS(=O)(=O)c1cccc(Nc2nccc(-c3sc(N)nc3C)n2)c1 result_value="3.16 µM"
smiles_str=CNc1nc(C)c(-c2ccnc(Nc3ccc(S(=O)(=O)NCCOC)cc3)n2)s1 result_value="0.0794 µM"

The record that follows has no IC50 shown yet.
## Input Name the recorded IC50 for CCNc1nc(C)c(-c2ccnc(Nc3ccc(CNC(C)=O)cc3)n2)s1 .
## Output 0.631 µM
